The measured values listed here are drawn from patent US20230355720A1.

Molecular target: T1, human GIP receptor (human, UniProt P48546 22-466)
T1 sequence (looked up): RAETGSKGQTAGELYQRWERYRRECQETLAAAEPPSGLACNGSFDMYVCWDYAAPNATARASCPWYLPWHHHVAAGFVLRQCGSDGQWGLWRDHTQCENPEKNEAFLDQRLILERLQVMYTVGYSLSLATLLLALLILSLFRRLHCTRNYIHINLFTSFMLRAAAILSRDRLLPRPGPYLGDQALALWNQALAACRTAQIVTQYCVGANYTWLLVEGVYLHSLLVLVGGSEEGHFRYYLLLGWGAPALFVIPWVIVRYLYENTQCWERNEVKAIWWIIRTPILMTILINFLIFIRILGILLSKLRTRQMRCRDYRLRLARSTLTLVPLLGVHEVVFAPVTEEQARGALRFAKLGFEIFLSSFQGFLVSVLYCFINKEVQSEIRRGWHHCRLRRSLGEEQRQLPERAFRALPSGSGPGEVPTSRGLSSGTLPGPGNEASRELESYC
Test: cell-based or functional assay
Bridge positions count the residues as written; N and C are the ends. Square brackets hold non-standard residues; d marks the D form. Ends that are not written are not given here. * marks the point of attachment. Acetyl(2-(4-imidazolyl)) = O=C(Cc1c[nH]cn1)*; Aib = CC(C)(N)C(=O)O
Listed here are binders together with their documented In vitro activity (%) compared with native peptide, vs GIP.
Use % as the unit, but write only the number.

binder="[Acetyl(2-(4-imidazolyl))][Aib]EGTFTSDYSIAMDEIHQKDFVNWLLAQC (bridge 16-20; not fully specified) [triple agonist of SEQ ID NO: 83]" observed_measurement=0.4

Next item in the queue.
Form field: reported In vitro activity (%) compared with native peptide, vs GIP of Y[Aib]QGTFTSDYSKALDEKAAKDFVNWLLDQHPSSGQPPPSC (bridge 16-20) [triple agonist of SEQ ID NO: 102]
58
